The values you see were collected from the supplement of paper PMC10567573.

test: protein stability index of a GFP-peptide fusion (GPS, HEK-293T) (PSI 1-6); higher = more stable; settings: treatment: DMSO; c terminus: a fixed tail appended;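 further: 24-mer peptide tiles fused after GFP, lentivirally expressed, FACS-sorted into six equal bins by GFP/DsRed ratio, decoded by Illumina sequencing, PSI is the read-weighted mean bin number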
Consider the following sequences; for each one, report its protein stability index.
Hey, just send me the number, nothing else.

Exercise: Record request: protein stability index value, item GGGDEDGSLGSRAEPAPRAREGGG [SMAD6]
Key: 5.55

Exercise: Consider the sequence shown here: RTTKPMAQRSAHCSRPSGSSSSSG [CSNK1G1] What is its recorded protein stability index?
Key: 4.39

Exercise: Look up protein stability index: GIELMEVDPIGHLYIFATCLGLSY [MAGEA3]
Key: 2.72

Exercise: For the sequence RHRLRWHSFQSSHRPSLNSVSLQI [DLC1] , what protein stability index is on record?
Key: 2.41

Exercise: I'd like to know its protein stability index. The sequence in question is PEGSQDRNTSWGVVQEPPGRASRF [TLE6]
Key: 4.83

Exercise: Look up protein stability index for this sequence: HNTTEAPGPHSAKQDSYEQGDSSQ [ZC2HC1C]
Key: 5.45

Exercise: Entry under review: KKRMRYFDPLRNEYFFDRNRPSFD [KCNA1] . Reported protein stability index?
Key: 2.47

Exercise: # input sequence: RFTAESYTVLGDTLIDGGEHYWEV [FSD1] ; wanted: its protein stability index
Key: 2.23

Exercise: Name the recorded protein stability index for MESLISAPLVKTLEKEEEKDLVMY [CDC25B] .
Key: 4.56

Exercise: Report protein stability index for VLEAKMTMLTVIEQPVPPTPATPE [EMID1] please.
Key: 3.72

Exercise: For INDNAPTFQSSVLRVGIPENAPIG [PCDHGC5] , what is its reported protein stability index?
Key: 3.99

Exercise: Look at this sequence and give its reported protein stability index. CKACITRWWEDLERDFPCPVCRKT [TRIM39]
Key: 3.97

Exercise: Suppose we examine the sequence AEGRVVGRKDITSILRAPAYPLEL [MOSPD3] ; what protein stability index value has been reported?
Key: 3.27

###

Please provide measured protein stability index for the entries that follow.
test: protein stability index of a GFP-peptide fusion (GPS, HEK-293T) (PSI 1-6); higher = more stable; details: treatment: DMSO; c terminus: a fixed tail appended
Hey, just send me the number, nothing else.

Exercise: Quick check: protein stability index of ALLALDENFDHNTLALILQIPTQN [PPFIA4] ?
Key: 2.21

Exercise: Recorded protein stability index of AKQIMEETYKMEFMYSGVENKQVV [INTS4] , please.
Key: 2.23

Exercise: # lookup: protein stability index of PDFCHKFLPGYVGGIQEGAVTPAG [DHCR7]
Key: 3.57

Exercise: Please report the recorded protein stability index for YDVEMTDELVGLPFSSHTYSQASE [FBXO34] .
Key: 4.52

Exercise: Recorded protein stability index of MAEGDNRSTNLLAAETASLEEQLQ [ARL6IP1] , please.
Key: 5.37

Exercise: Sample SSHKQGHTSSEYDMLREMFSDSRS [TAF7L] — what was its protein stability index?
Key: 4.11

Exercise: Entry under review: EIARREKELEARVRKPAEAERYKL [FLOT1] . Reported protein stability index?
Key: 4.4

Exercise: Look up protein stability index for this sequence: CLFSLINGDDMFVTFAAMQAQQGR [MCOLN1]
Key: 2.97

Exercise: Need protein stability index of SVDDIESETGSTGALETRSLKDHK [C2CD2L] , thanks.
Key: 5.52

Exercise: Any idea what protein stability index was measured for PAFRFLTKMWHPNIYETGDVCISI [CDC34] ?
Key: 3.2

Exercise: Request the reported protein stability index associated with LHELSSRVEASHLTTSQERELGIR [FBF1]
Key: 4.46

Exercise: Quick one: protein stability index of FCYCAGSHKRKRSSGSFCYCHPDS [GMCL1] ?
Key: 2.56

Exercise: # protein stability index lookup, item LPLPLSLAPPPLPLPAAAVVHVSF [ZBTB22]
Key: 2.34

Exercise: Look at this sequence and give its reported protein stability index. GIAILVGSNDRVQGVISQLEDTCK [TRIM55]
Key: 2.3

Exercise: So what's the measured protein stability index for this one? LTPSSKEMMSQALKATFSGFTKEQ [ETS1]
Key: 3.87

Exercise: Fill in the blank: the reported protein stability index of GHGEPDVLKDELQLYGDAPGEVVP [TMEM40] is ____.
Key: 5.36

###

assay: protein stability index of a GFP-peptide fusion (GPS, HEK-293T) (PSI 1-6); higher = more stable; settings: treatment: DMSO; c terminus: a fixed tail appended
readoutLabel: protein stability index
Form field (numeric): enter value without unit.

Exercise: Which protein stability index value belongs to GEHKDRIERQWGNLLGEGQHKCDE [ZSCAN9] ?
Key: 4.88

Exercise: Which value of protein stability index has been reported for IVSILPYFITLGTDLAQQQGGGNG [KCNA4] in the records?
Key: 2.92

Exercise: Consider the sequence shown here: KHWVYVKRGGNCPAPAPLVPQDPD [ZBTB22] What is its recorded protein stability index?
Key: 3.32

Exercise: What measured protein stability index goes with ARELQEALPEAPAPLLPHITATSL [BCL2L13] ?
Key: 4.32

Exercise: Can you look up the measured protein stability index of TTPPGHGTLDNSKSMKPYNYCSAY [NEUROD6] for me?
Key: 3.27

Exercise: What value of measured protein stability index is listed for RSRLRPRDDLDRLGVFLDYEAGVL [TRIM14] ?
Key: 2.47

Exercise: If you can, please state the reported protein stability index value of LSEIFPGGIRGRAMALTSSMNWGI [SLC2A12] .
Key: 1.91

Exercise: Query: protein stability index; subject: FLQQSLERVYSLQHLDPQGAQELL [INTS4]
Key: 1.91

Exercise: Can you look up the measured protein stability index of ETHRAPDLVQWTRHMEAVKAQLLE [SOAT2] for me?
Key: 4.81

###

Would you kindly list protein stability index for each of these sequences?
assay: protein stability index of a GFP-peptide fusion (GPS, HEK-293T) (PSI 1-6); higher = more stable; settings: treatment: DMSO; c terminus: a fixed tail appended

Exercise: So what's the measured protein stability index for this one? EDGKTCRRKDVCQAIDHGCEHICV [MATN2]
Key: 3.82

Exercise: I would be grateful if you could share the reported protein stability index for GYLLSFHTPGGQNQEILLPGGITS [TNXB] .
Key: 2

Exercise: Returns the measured protein stability index for the input sequence. Input: LAARSGAAYGPGARGEDRAGPQSP [TSPAN10]
Key: 5.15

Exercise: Could you share which protein stability index value was measured for PRQVSYTPQHHEKQYAMQRPNDDS [IQUB] ?
Key: 4.78

Exercise: Would you kindly share the measured protein stability index for IFRNLCQMQEDNSSFSLLLDLLSE [INTS3] ?
Key: 2.61

Exercise: protein stability index lookup needed for MLHHHCRRNPELQEELQIQAAVAA [ASB7] , thanks.
Key: 3.47

Exercise: Looking for the measured protein stability index of SRAALVCRKWNQMMYSAELWRYRT [FBXO39] , can you help?
Key: 2.45

###

experiment: protein stability index of a GFP-peptide fusion (GPS, HEK-293T) (PSI 1-6); higher = more stable; conditions: treatment: DMSO; c terminus: a fixed tail appended
readoutLabel: protein stability index

Exercise: Would you mind telling me what protein stability index value was observed for ELVPKQPQKRKPQEQLLECNKLCG [SLC2A12] ?
Key: 3.44

Exercise: Would you mind telling me what protein stability index value was observed for ANQKLSEKLAAGALPHINARGPVR [CCDC3] ?
Key: 3.62

Exercise: Name the reported protein stability index value associated with the sequence SKLCTSYSHSSTRDGRRDRYSSDT [GOSR1]
Key: 4.32

Exercise: Fill blank: measured protein stability index of the sequence HSDMAAIVKAMASPESGLEVRDRM [DVL3] is ____.
Key: 3.81

Exercise: State the recorded protein stability index for this entry: SRCRKLVEYFQQSAVAMYMLYEKQ [ZBED1]
Key: 2.44

Exercise: // lookup protein stability index for LSAEPGWQAKREEEEEEEEEAEAG [CHGA]
Key: 5.62

Exercise: Record request: protein stability index value, item ILLLDGAAWLTLWVFGTSFLPFLL [FADS1]
Key: 2.91

Exercise: What protein stability index value was documented for this sequence, ERAIRTQPKQLIVDDLKGSLKEDL [SPRY1] ?
Key: 4.81

Exercise: // protein stability index lookup, key: GIHLALVELLKNLTKYPTDRDSIW [INTS4]
Key: 2.77

Exercise: What value of protein stability index has been reported for the following sequence? KALQMLLSQPVTYQAFRECTLETT [BCL2L13]
Key: 3.24

Exercise: Entry "MQRPYDSRTCIGSSHSRGPLSWAP" : reported protein stability index = ?
Key: 3.1

Exercise: Param item = SPPPAPTSSTFGLQDGNLRAPHKE [CHCHD6] ; retrieve measured protein stability index.
Key: 5.11

Exercise: Suppose we examine the sequence MNGHQNGLDSPPLYPSAPILGGSG [ESRRG] ; what protein stability index value has been reported?
Key: 3.91
